- target_desc: interaction between VCAM-1 and VLA-4 (VLA-4 on human U937 cells / hVCAM-1(1-3)-IgG) (Homo sapiens, UniProt P05556+P13612)
- Construct: offered in their natural form as surface molecules on human U937 cells; The partner hVCAM-1(1-3)-IgG was made in house in transfected COS cells (ATCC CRL1651) and used as culture supernatant
- Sequence (P13612 34-1032): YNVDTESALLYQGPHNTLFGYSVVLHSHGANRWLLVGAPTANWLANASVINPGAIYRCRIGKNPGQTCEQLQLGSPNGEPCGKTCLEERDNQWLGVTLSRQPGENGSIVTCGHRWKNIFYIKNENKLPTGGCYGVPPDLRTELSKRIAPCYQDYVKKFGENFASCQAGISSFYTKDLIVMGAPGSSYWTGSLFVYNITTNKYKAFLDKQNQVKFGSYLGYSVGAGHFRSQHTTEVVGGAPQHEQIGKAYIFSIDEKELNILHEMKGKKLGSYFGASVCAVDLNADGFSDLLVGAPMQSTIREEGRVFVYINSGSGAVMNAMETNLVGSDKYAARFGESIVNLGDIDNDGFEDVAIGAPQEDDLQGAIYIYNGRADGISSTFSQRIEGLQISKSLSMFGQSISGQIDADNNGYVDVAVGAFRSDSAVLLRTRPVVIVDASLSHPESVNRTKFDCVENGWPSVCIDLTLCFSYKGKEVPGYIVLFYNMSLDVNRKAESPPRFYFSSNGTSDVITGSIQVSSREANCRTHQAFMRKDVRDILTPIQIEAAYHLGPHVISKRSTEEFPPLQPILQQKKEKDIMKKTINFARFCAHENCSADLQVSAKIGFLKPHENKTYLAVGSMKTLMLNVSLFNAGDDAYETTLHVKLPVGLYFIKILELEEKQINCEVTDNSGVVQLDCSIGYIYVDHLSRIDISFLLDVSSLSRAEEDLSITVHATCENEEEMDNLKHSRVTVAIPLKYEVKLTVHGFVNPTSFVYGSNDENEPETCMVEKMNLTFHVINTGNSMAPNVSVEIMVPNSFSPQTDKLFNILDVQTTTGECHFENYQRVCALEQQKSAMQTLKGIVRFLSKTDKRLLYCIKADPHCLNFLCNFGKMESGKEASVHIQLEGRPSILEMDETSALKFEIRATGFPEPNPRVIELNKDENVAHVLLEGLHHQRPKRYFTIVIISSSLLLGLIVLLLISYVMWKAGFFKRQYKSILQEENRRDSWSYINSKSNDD
- Sequence (P05556 21-798): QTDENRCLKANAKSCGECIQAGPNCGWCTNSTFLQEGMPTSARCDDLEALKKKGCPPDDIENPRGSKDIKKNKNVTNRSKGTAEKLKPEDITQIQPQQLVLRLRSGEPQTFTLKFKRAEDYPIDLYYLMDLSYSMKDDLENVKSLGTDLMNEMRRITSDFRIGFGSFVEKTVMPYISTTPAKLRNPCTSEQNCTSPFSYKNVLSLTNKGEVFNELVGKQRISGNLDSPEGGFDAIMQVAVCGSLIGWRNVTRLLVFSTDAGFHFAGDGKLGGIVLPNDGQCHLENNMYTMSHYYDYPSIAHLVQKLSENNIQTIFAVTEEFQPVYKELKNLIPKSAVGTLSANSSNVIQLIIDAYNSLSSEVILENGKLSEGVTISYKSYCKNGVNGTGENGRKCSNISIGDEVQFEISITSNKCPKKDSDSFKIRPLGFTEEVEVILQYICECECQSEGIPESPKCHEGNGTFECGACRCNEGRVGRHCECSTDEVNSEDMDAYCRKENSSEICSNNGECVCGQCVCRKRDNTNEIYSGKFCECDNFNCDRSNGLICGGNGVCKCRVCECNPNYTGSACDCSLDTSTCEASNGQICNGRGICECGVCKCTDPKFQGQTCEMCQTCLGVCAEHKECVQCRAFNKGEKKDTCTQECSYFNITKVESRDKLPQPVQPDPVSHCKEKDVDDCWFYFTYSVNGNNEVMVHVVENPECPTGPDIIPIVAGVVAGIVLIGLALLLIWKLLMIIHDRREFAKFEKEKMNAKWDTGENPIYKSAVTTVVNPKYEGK
- method_description: U937/VCAM-1 cell adhesion test: adhesion of U937 cells to hVCAM-1(1-3)-IgG
- assay_conditions: inhibition of adhesion of U937 cells (ATCC CRL 1593) to hVCAM-1(1-3)-IgG
Can you tell me pIC50 for the items I'm about to list?
Numbers only, as −log10 of the molar value.

Hi there! I need pIC50 for each item below, if you can.
1. Cc1ccccc1NC(=O)Nc1ccc(C2(C)C(=O)N(CC(=O)N[C@@H](CC(=O)O)C(=O)N[C@H](C(=O)O)c3ccccc3)C(=O)N2Cc2ccccc2)cc1 (stereo partly drawn) [Example 3]
2. CC1(c2ccc(C#N)cc2)C(=O)N(CC(=O)N[C@@H](CC(=O)O)C(=O)N[C@H](C(=O)O)c2ccccc2)C(=O)N1Cc1ccc2ccccc2c1 (stereo partly drawn) [Example 1]
3. CC1(c2ccc(CNC(=O)NCc3ccccc3)cc2)C(=O)N(CC(=O)N[C@@H](CC(=O)O)C(=O)N[C@H](C(=O)O)c2ccccc2)C(=O)N1Cc1ccccc1 (stereo partly drawn) [Example 4]

A:
[5.55, 4.52, 4.85]

====

- target_desc: interaction between VCAM-1 and VLA-4 (VLA-4 on human U937 cells / hVCAM-1(1-3)-IgG) (Homo sapiens, UniProt P05556+P13612)
- Construct: offered in their natural form as surface molecules on human U937 cells; The partner hVCAM-1(1-3)-IgG was made in house in transfected COS cells (ATCC CRL1651) and used as culture supernatant
- method_description: U937/VCAM-1 cell adhesion test: adhesion of U937 cells to hVCAM-1(1-3)-IgG
- assay_conditions: inhibition of adhesion of U937 cells (ATCC CRL 1593) to hVCAM-1(1-3)-IgG
- Source text: As a test method for the activity of the compounds of the formula Ib on the interaction between VCAM-1 and VLA-4, an assay is used which is specific for this interaction. The cellular binding components, i.e. the VLA-4-integrins, are offered in their natural form as surface molecules on human U937 cells (ATCC CRL 1593), which belong to the group of leucocytes. […]
Can you tell me IC50 for the items I'm about to list?

Solved entries (count: 3):
{"columns": ["compound", "measure", "reported_result"],
 "data": [
  ["Cc1ccccc1NC(=O)NCc1ccc(C2(C)C(=O)N(CC(=O)N[C@@H](CC(=O)O)C(=O)N[C@H](C(=O)O)c3ccccc3)C(=O)N2Cc2ccccc2)cc1 (stereo partly shown) [Example 6]", "IC50", "6.5 µM"],
  ["CC1(c2ccc(CNC(=O)NCCc3ccccc3)cc2)C(=O)N(CC(=O)N[C@@H](CC(=O)O)C(=O)N[C@H](C(=O)O)c2ccccc2)C(=O)N1Cc1ccccc1 (stereo partly shown) [Example 7]", "IC50", "20 µM"],
  ["CC1(c2ccc(CNC(=O)Nc3ccccc3)cc2)C(=O)N(CC(=O)N[C@@H](CC(=O)O)C(=O)N[C@H](C(=O)O)c2ccccc2)C(=O)N1Cc1ccccc1 (mixture of isomers) [Example 5]", "IC50", "9 µM"]
]}

Now consider the entry below.
IC50 for CC1(c2ccc([N+](=O)[O-])cc2)C(=O)N(CC(=O)N[C@@H](CC(=O)O)C(=O)N[C@H](C(=O)O)c2ccccc2)C(=O)N1Cc1ccccc1 (stereo partly shown) [Example 2] is 27.7 µM

These measurements were taken from patent US6838439B2.
